Tested on: Enterococcus faecalis ATCC 29212
Parameter: MIC. Scope: all listed entries.
Supply the numeric figure in µM, leaving out any unit text.

Example results:
COMPOUND	RECORDED_VALUE
CSCC[C@H](NC(=O)[C@H](CCCN=C(N)N)NC(=O)[C@H](Cc1c[nH]c2ccccc12)NC(=O)[C@H](CCC(N)=O)NC(=O)[C@H](Cc1c[nH]c2ccccc12)NC(=O)[C@H](CCCN=C(N)N)NC(=O)[C@H](CCCN=C(N)N)NC(=O)[C@H](C)NC(=O)[C@H](CCCCN)NC(=O)[C@@H](N)Cc1ccccc1)C(=O)N[C@@H](CCCCN)C(=O)N[C@@H](CCCCN)C(=O)O [FKARRWQWRMKK]	58.2
CC(C)C[C@H](NC(=O)[C@H](Cc1cnc[nH]1)NC(=O)[C@H](Cc1ccc(O)cc1)NC(=O)[C@H](CCCN=C(N)N)NC(=O)[C@H](Cc1ccc(O)cc1)NC(=O)[C@H](CCCCN)NC(=O)[C@@H](N)CCCCN)C(=O)N[C@@H](CCCCN)C(=O)N1CCC[C@H]1C(=O)N[C@@H](Cc1ccccc1)C(=O)N[C@@H](CS)C(=O)N[C@@H](CCCCN)C(=O)N[C@@H](CCCCN)C(=O)O [KKYRYHLKPFCKK]	294

Please examine the following record next.
stdin: Name the recorded MIC for NC(=O)[C@H](Cc1ccccc1)NC(=O)[C@H](CCCN=C(N)N)NC(=O)[C@H](Cc1ccccc1)NC(=O)[C@H](CCCN=C(N)N)NC(=O)[C@H](CS)NC(=O)[C@H](Cc1ccccc1)NC(=O)[C@H](CCCN=C(N)N)NC(=O)[C@H](CCCN=C(N)N)NC(=O)[C@H](CCCN=C(N)N)NC(=O)[C@H](CS)NC(=O)[C@H](CCCN=C(N)N)NC(=O)[C@H](Cc1ccccc1)NC(=O)[C@H](CCCN=C(N)N)NC(=O)[C@@H](N)Cc1ccccc1 [FRFRCRRRFCRFRF] .
stdout: 4

----------
Here we list compounds with their recorded MIC when tested on Staphylococcus aureus ATCC 6538.

Example results:
QUERY_SMILES	MEASURED_METRIC	RECORDED_VALUE
CC(C)[C@H](NC(=O)[C@H](CS)NC(=O)[C@@H](NC(=O)[C@H](CCCN=C(N)N)NC(=O)[C@H](CCCCN)NC(=O)CNC(=O)[C@@H](N)CC(N)=O)C(C)C)C(=O)N[C@@H](CS)C(=O)N[C@@H](CCCN=C(N)N)C(N)=O	MIC	> 96.7 µM
CC[C@H](C)[C@H](NC(=O)[C@@H](NC(=O)[C@H](CC(=O)O)NC(=O)[C@H](Cc1ccccc1)NC(=O)[C@H](CC(C)C)NC(=O)CN)C(C)C)C(=O)N[C@@H](CCCCN)C(=O)O	MIC	> 1290 µM

Please examine the following record next.
stdin: Record lookup: for Staphylococcus aureus ATCC 6538, what MIC belongs to "CC[C@H](C)[C@H](N)C(=O)N[C@H](C(=O)N[C@@H](CCCCN)C(=O)N[C@H](C(=O)N[C@H](C(=O)N[C@H](C(=O)N[C@@H](CCCCN)C(=O)N[C@@H](CC(C)C)C(=O)N[C@@H](CC(C)C)C(=O)N[C@@H](CC(N)=O)C(=O)N[C@@H](CCCN=C(N)N)C(=O)N[C@@H](CC(C)C)C(=O)N[C@@H](CO)C(=O)N[C@@H](CCCCN)C(=O)N[C@H](C(=O)N[C@@H](CC(C)C)C(=O)N[C@@H](CO)C(=O)N[C@@H](CCCCN)C(=O)O)[C@@H](C)CC)[C@@H](C)O)[C@@H](C)CC)C(C)C)[C@@H](C)O" ?
stdout: > 50 µM
